biological target: ZDHHC5 (UniProt Q9C0B5); assay: log2 fold change, soluble protein after heating vs DMSO (PISA); higher = thermal stabilisation; K562 cells, 10 uM, 30 min; active = over 0.2 and 3.5 SD of the protein, either way, in both replicates (recomputed)
Sequence (Q9C0B5 whole entry, looked up): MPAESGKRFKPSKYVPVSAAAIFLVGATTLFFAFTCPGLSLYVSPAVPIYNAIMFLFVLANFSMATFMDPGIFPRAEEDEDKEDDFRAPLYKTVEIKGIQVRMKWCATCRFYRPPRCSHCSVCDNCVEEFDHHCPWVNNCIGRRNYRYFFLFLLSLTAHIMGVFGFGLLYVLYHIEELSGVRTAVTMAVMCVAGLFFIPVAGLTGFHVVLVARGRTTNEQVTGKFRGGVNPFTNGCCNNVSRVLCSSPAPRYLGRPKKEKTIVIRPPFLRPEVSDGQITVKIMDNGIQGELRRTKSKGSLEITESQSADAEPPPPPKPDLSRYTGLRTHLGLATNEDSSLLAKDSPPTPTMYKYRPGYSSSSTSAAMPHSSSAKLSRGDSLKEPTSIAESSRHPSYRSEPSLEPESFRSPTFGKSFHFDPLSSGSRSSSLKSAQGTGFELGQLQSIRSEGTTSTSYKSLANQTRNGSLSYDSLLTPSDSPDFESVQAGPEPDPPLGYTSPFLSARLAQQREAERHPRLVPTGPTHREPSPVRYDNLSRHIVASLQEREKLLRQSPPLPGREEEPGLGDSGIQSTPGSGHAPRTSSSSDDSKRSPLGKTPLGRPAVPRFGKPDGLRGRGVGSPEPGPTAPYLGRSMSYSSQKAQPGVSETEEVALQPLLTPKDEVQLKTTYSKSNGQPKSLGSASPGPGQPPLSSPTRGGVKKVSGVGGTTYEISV
Of roughly 7,900 targets only a part is listed; those with a hit were picked by preference. About 0.6% of all pairs of compound and target were hits.
outcome-measure: log2 fold change

[
  {
    "compound": "Cc1ccc(NC(=O)c2ccc(CN3CC[C@H](N(C)C)C3)c(C(F)(F)F)c2)cc1Nc1nccc(-c2cncnc2)n1 [bafetinib]",
    "outcome-measure": "log2 fold change",
    "experimental-result": 0
  },
  {
    "compound": "CNc1nc(-c2ccc3c(N)n[nH]c3c2)cc(N2C[C@@H](C(=O)NC3CCCCC3)CC[C@H]2C)n1",
    "outcome-measure": "log2 fold change",
    "experimental-result": 0.011
  },
  {
    "compound": "NC1(Cc2ccc(Cl)cc2)CCN(c2ncnc3[nH]ccc23)CC1",
    "outcome-measure": "log2 fold change",
    "experimental-result": 0.071
  },
  {
    "compound": "Cc1ccc(Sc2cncc3sc(C(N)=O)cc23)cc1",
    "outcome-measure": "log2 fold change",
    "experimental-result": -0.011
  }
]
